# TEST_TARGET: Histone deacetylase 8 (Homo sapiens) (UniProt Q9BY41)
# Sequence (Q9BY41 whole entry): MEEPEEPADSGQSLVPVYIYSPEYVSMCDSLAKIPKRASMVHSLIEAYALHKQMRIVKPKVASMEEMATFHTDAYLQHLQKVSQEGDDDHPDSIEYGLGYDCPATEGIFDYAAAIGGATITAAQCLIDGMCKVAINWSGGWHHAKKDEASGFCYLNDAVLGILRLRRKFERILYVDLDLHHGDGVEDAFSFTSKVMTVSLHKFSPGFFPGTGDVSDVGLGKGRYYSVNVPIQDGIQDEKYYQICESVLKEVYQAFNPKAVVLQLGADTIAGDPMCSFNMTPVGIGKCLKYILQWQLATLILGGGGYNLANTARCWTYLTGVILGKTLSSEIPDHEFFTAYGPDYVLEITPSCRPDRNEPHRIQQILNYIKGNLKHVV
# METHOD_SUMMARY: Inhibition of HDAC8 (unknown origin) at 1 uM incubated for 30 mins by fluorometric analysis
Form field: inhibition (one value per entry).
Dear colleague, please return just the value in %, with no unit written.

Please review the following examples before continuing.
Cc1ccc(CN2CCC3=C(C2)C(=O)N(Cc2ccc(C(=O)NO)cc2)C2=NCCN23)cc1    63.6
Cc1cccc(CN2CCC3=C(C2)C(=O)N(Cc2ccc(C(=O)NO)cc2)C2=NCCN23)c1    74.9
O=C(NO)c1ccc(CN2C(=O)C3=C(CCN(Cc4cccc(F)c4)C3)N3CCN=C23)cc1    75
COc1cccc(CN2CCC3=C(C2)C(=O)N(Cc2ccc(C(=O)NO)cc2)C2=NCCN23)c1    72.2

In plain terms, O=C(NO)c1ccc(CN2C(=O)C3=C(CCN(Cc4cccnc4)C3)N3CCN=C23)cc1 has a documented inhibition of 66.4

In plain terms, O=C(NO)c1ccc(CN2C(=O)C3=C(CCN(Cc4ccccc4)C3)N3CCN=C23)cc1 has a documented inhibition of 72.8

Source listed as ChEMBL document CHEMBL6092154.
